Observed property: IC50 (µM)
Provide the reading as a plain figure in µM.

Record lookup: for trypsin (Bos taurus, UniProt P00760), what IC50 belongs to N=C(N)NCCC[C@H](NS(=O)(=O)c1cccc2ccccc12)C(=O)N1CCC(c2ccccc2)CC1 ?
11

Observed IC50 on trypsin (Bos taurus, UniProt P00760) for CCOC(=O)C1(c2ccccc2)CCN(C(=O)[C@H](CCCNC(=N)N)NS(=O)(=O)c2ccc3ccc(OC)cc3c2)CC1 , please.
Sequence (P00760 24-246): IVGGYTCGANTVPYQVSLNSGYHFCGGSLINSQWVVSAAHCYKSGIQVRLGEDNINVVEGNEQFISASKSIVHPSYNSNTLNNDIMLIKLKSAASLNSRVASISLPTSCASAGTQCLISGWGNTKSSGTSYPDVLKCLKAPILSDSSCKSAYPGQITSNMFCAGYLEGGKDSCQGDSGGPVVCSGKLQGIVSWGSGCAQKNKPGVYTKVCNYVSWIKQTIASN
12

State its IC50 on trypsin (Bos taurus, UniProt P00760): COc1ccc2ccc(S(=O)(=O)N[C@@H](CCCNC(=N)N)C(=O)N3CCN(c4ccccc4C)CC3)cc2c1
0.4

Write down the reported IC50 of Cc1ccc(S(=O)(=O)N[C@@H](CCCNC(=N)N)C(=O)N2CCC(c3ccccc3)CC2)cc1 , test system: trypsin (Bos taurus, UniProt P00760).
22

Hi! What's the reported IC50 for N=C(N)NCCC[C@H](NS(=O)(=O)c1ccc2ccccc2c1)C(=O)N1CCC(c2ccccc2)CC1 on trypsin (Bos taurus, UniProt P00760)?
3.2

The measurements presented in this section are drawn from patent US4764618A.
